- Tested on: Fibroblast
- measurement_notes: Multiplex assay against human fibroblast
- Assay type: toxicity, cell-based
- condition_summary: 24 h, 10 µM, compound concentration 10 uM, replicate 1
true if Population Fragmented Nuclei (%) is below 20%. false if not; exact matches included in false.

Query: Is it true that Population Fragmented Nuclei (%) reported for C[C@@H]1C[C@H]2[C@@H]3CCC4=CC(=O)C=C[C@]4(C)[C@@]3(F)[C@@H](O)C[C@]2(C)[C@@]1(O)C(=O)CO is less than 20%?
Reply: true

Query: Follow-up entry: O=C(O)c1cc2ccccc2c(Cc2c(O)c(C(=O)O)cc3ccccc23)c1O
Reply: true

Query: For COc1cc(C(=O)N(CCCc2ccccc2)Cc2ccc(CC(=O)O)cc2)cc(OC)c1C then?
Reply: true

Query: Quick one: CC(C)(C)c1ccc(S(=O)(=O)Nc2ccc(Cl)cc2C(=O)c2cc[n+]([O-])cc2)cc1
Reply: true

Query: Okay, and CNC[C@H](O)c1ccc(O)c(O)c1 [EPINEPHRINE] ?
Reply: true

Query: Same question, CN1CCN2c3ncccc3Cc3ccccc3C2C1 (configuration not stated) this time
Reply: true

Query: Same lookup for CC(=O)NCCc1c(Cc2ccccc2)[nH]c2ccccc12 , please.
Reply: true

Query: Follow-up item: COc1c(C)cc(NC(=O)c2nn(Cc3ccc(F)cc3)c3c2CN(C(=O)c2ccc[nH]2)C[C@]3(C)C(N)=O)cc1C
Reply: true

Query: Try the compound O=C(NCCO)c1cccc(-c2cc(Nc3ccc(OC(F)(F)F)cc3)ncn2)c1
Reply: true

Query: Can you handle Cl.Clc1ccc2nsnc2c1NC1=NCCN1 [TIZANIDINE HYDROCHLORIDE] next?
Reply: true

Query: // same read-out, input: Oc1c(CN2CCN(c3ccccn3)CC2)cc(Cl)c2cccnc12
Reply: false

Query: // next record CC[C@H]1OC(=O)[C@H](C)[C@@H](O[C@H]2C[C@@](C)(OC)[C@@H](O)[C@H](C)O2)[C@H](C)[C@@H](O[C@@H]2O[C@H](C)C[C@H](N(C)C)[C@H]2O)[C@@]2(C)CC(C)=C(O2)[C@H](C)[C@@H](O)[C@]1(C)O
Reply: false

Query: Likewise for CCNC1(C(N)=O)CCN(c2ncnc3c2nc(-c2ccccc2Cl)n3-c2ccc(Cl)cc2)CC1 ?
Reply: false

Query: Param item: CCCC(CCC)C(=O)O
Reply: false

Query: Try CCCN1CCC[C@@H]2Cc3n[nH]cc3C[C@H]21.Cl [QUINPIROLE HYDROCHLORIDE] next.
Reply: false

Query: And what about the compound CN(C)c1ccnc2sc3c(=O)n(N4CCCCCC4)cnc3c12 ?
Reply: true

Query: Now try COc1ccc2c(c1)C(C(=O)N(Cc1ccc(N(C)C)cc1)c1ccc(C(C)C)cc1)CCC2.Cl (configuration not stated) .
Reply: true

----------
- System: Fibroblast
- measurement_notes: Multiplex assay against human fibroblast
- Format: toxicity, cell-based
- condition_summary: 12 h, 1 µM, compound concentration 1 uM, replicate 1
Give Population Fragmented Nuclei (%) for every item shown.
Give your result in % as a bare value.

Query: Quick check: Population Fragmented Nuclei (%) of N[C@@]1(C(=O)O)CO[C@H]2[C@H](C(=O)O)[C@H]21 ?
Reply: 17

Query: Continue with COc1cc(NC(=O)CCN2CCC(OC(=O)Nc3ccccc3-c3ccccc3)CC2)c(Cl)cc1CNC[C@H](O)c1ccc(O)c2[nH]c(=O)ccc12
Reply: 25

Query: One more compound: CCCn1c(=O)c2[nH]c(C3CCCC3)nc2n(CCC)c1=O
Reply: 10

Query: Here is the next compound: Cc1ccc(/C(=C\CN2CCCC2)c2ccccn2)cc1
Reply: 17

Query: # repeat for O=C(NCC(=O)N1CC[C@H](N[C@H]2CC[C@@](O)(c3ccc(-c4ncccn4)cn3)CC2)C1)c1cccc(C(F)(F)F)c1
Reply: 13

Query: Try this compound too: c1cc(OCCCN2CCCCC2)ccc1CN1CCCCC1
Reply: 15

Query: Quick one: C[C@H]1[C@H]2CC[C@H]3[C@@H]4CC=C5C[C@@H](N(C)C)CC[C@]5(C)[C@H]4CC[C@]23CN1C
Reply: 15

Query: Okay, and CN(C)c1ccnc2sc3c(=O)n(N4CCCCCC4)cnc3c12 ?
Reply: 17
